# reported solubility kinetic; entries follow
Measurement setup: buffer; pH 7.4; 200.0 µM

input: Query: solubility kinetic; subject: CCOc1ccc(NC(=O)CN2C(=O)CSC(C)C2=O)cc1 (stereo unspecified)
output: > 48.4 µg/mL

input: Query: solubility kinetic; subject: CN(C)c1nc2c(N)ncnc2n1[C@H]1O[C@@H](CO)[C@H](O)[C@@H]1O
output: > 46.5 µg/mL

input: Query: solubility kinetic; subject: O=C(Nc1ccn([C@H]2CC[C@@H](CO)O2)c(=O)n1)c1ccccc1
output: > 47.3 µg/mL

input: Query: solubility kinetic; subject: C/C(=N\OCc1cccc(C(=O)O)c1)c1ccc(Cl)cc1
output: > 45.6 µg/mL

input: Query: solubility kinetic; subject: O=C(NCC1CCCO1)c1ccc([N+](=O)[O-])o1 (stereo unspecified)
output: > 36 µg/mL

Pending molecule:
input: Query: solubility kinetic; subject: CC(OC(=O)c1ccc2ccccc2n1)C(=O)c1ccccc1 (stereo unspecified)
output: > 45.8 µg/mL

====

Measurement setup: buffer; pH 7.4; 200.0 µM
# reported solubility kinetic; entries follow

input: Query: solubility kinetic; subject: CC(=O)c1cc2c(cc1NC(=O)Cc1c(C)noc1C)OCO2
output: > 47.4 µg/mL

Continuing:
input: Query: solubility kinetic; subject: CC1(C)Cc2nc3sc(C(N)=O)c(N)c3cc2CO1
output: > 41.6 µg/mL

input: Query: solubility kinetic; subject: O=C(Nc1ccccc1C(=O)N1CCCCC1)NC1CCCCC1
output: > 49.4 µg/mL

input: Query: solubility kinetic; subject: Cc1nc(NC(=S)NC(=O)c2ccco2)sc1C(=O)N(C)C
output: > 50.8 µg/mL

====

Measurement setup: buffer; pH 7.4; 200.0 µM
# reported solubility kinetic; entries follow
Numeric answer only, unit µg/mL assumed.

Would you please look over these solved cases?
input: Query: solubility kinetic; subject: COc1ccc(OCCNC(=O)c2ccc(C)cc2)cc1
output: 36.8

input: Query: solubility kinetic; subject: COc1ccc(OC)c(Nc2ncnc3sccc23)c1
output: 42.2

input: Query: solubility kinetic; subject: CC(C)NC(=O)CSc1nccc(-c2cccs2)n1
output: 38.7

input: Query: solubility kinetic; subject: COc1cccc(C(=O)NCC2(c3ccccc3)CCCC2)c1OC
output: 15.3

input: Query: solubility kinetic; subject: O=C(NCCNC(=O)c1ccc(Cl)cc1Cl)c1ccco1
output: 30.7

input: Query: solubility kinetic; subject: O=C(NC1CCN(Cc2ccc(Cl)cc2Cl)CC1)c1ccccc1
output: 2.3

Continuing:
input: Query: solubility kinetic; subject: Cc1ccc(/C=C(\NC(=O)c2ccccc2)C(=O)N2CCCCC2)cc1
output: 39.9

input: Query: solubility kinetic; subject: O=C(CCNC(=O)c1ccc([N+](=O)[O-])cc1)NCCc1ccccc1
output: 13.8

input: Query: solubility kinetic; subject: CC(C)(CNC(=O)c1ccccc1F)CNC(=O)c1ccccc1F
output: 51.6

input: Query: solubility kinetic; subject: O=C(OCC(=O)N1CCN(c2ccccc2)CC1)c1ccc([N+](=O)[O-])s1
output: 7.1

input: Query: solubility kinetic; subject: COc1ccc(C(=O)N2CC(c3ccccc3)CC2=O)cc1 (stereo unspecified)
output: 3.4

input: Query: solubility kinetic; subject: Cc1nc2ccc(C(=O)Nc3ccc(N(C)C)cc3)cc2s1
output: 4.1
